test system: TK-10; assay: NCI tumour cell line growth inhibition, 48 h
Activity calls are given as the source filed them. No stated cut-off is given here; in the data, active = GI50 up to about 1.1 µM and inactive = higher.
Outcome codes: Yes for active, No for inactive

{"molecule": "Cn1nc(S(N)(=O)=O)s/c1=N/C(N)=S", "assigned_label": "No"}
{"molecule": "Nc1nc(=O)[nH]c2c1cnn2C1CCCCO1 (stereo unspecified)", "assigned_label": "No"}
{"molecule": "COc1ccc(N2C(N)=C(C#N)C(C#N)(C#N)C2c2cccc([N+](=O)[O-])c2)cc1 (stereo unspecified)", "assigned_label": "No"}
{"molecule": "COC(=O)c1nn(C(=N)c2ccc(Cl)cc2)c2c1CCCCC2", "assigned_label": "No"}
{"molecule": "CNC(=O)CCNC(=O)CCC(=O)N(C)C", "assigned_label": "No"}
{"molecule": "O=C(N/N=C(COc1cccc(Cl)c1)\\N=C\\c1cccnc1)c1ccncc1", "assigned_label": "No"}
{"molecule": "O=C(CC(=O)N1N=C(N(c2ccccc2)c2ccccc2)CC1c1ccccc1)Nc1ccccc1 (stereo unspecified)", "assigned_label": "No"}
{"molecule": "C=C(C)C(CC=C(C)C)CC12CC(CC=C(C)C)C(C)(C)C(CC=C(C)C)(C(=O)C(Cc3ccc(O)c(O)c3)=C1O)C2=O (stereo unspecified)", "assigned_label": "No"}
{"molecule": "O=S(=O)(O)c1ccc(/N=N/c2ccc(/N=N/c3c(O)c(S(=O)(=O)O)cc4cc(S(=O)(=O)O)ccc34)cc2)cc1", "assigned_label": "No"}
{"molecule": "COC(=O)C1=C(C(=O)OC)C2(c3ccccc3)OC1(c1ccccc1)c1cc3ccccc3cc12", "assigned_label": "No"}
{"molecule": "C=C(N=[N+]=[N-])c1cn(C2CC(O)C(CO)O2)c(=O)[nH]c1=O (stereo unspecified)", "assigned_label": "No"}
{"molecule": "CCOC(=O)c1nc2c3c(ncn2n1)Oc1c(c(-c2ccccc2)nn1-c1ccccc1)C3c1ccc(Cl)cc1 (stereo unspecified)", "assigned_label": "No"}
{"molecule": "COc1cccc2c1C(=O)c1c(O)c3c(c(O)c1C2=O)CC(O)(C(O)CO)CC3OC1CC(N2CCOCC2)C(O)C(C)O1 (stereo unspecified)", "assigned_label": "Yes"}
{"molecule": "O=c1c2cc([N+](=O)[O-])ccc2n2n1CCCCC2", "assigned_label": "No"}
{"molecule": "Cc1ccc(C(=O)/C=C(\\O)C(=O)NC23CC4CC(CC(C4)C2)C3)cc1", "assigned_label": "No"}
{"molecule": "COc1cc(Cl)c2c3c(c(C(=O)c4ccccc4)oc13)CCC2", "assigned_label": "No"}
